These data points were gathered from paper PMC3810934.

Assayed Target: Oseltamivir-resistant A/Bethesda/956/2006 neuraminidase (K at 292) (Influenza A virus (H3N2), UniProt F1KL32, R292K)
Type: biochemical
Condition Label: pH 5.1
Reported Metric: pIC50
pIC50 is a log-scale quantity: -log10 of the concentration expressed in molar.

Consider CCC(CC)[C@H](NC(C)=O)[C@@H]1[C@H](O)[C@@H](C(=O)O)C[C@H]1N=C(N)N . Its measured pIC50 is 8.07

---

Assayed Target: Oseltamivir-resistant A/Bethesda/956/2006 neuraminidase (K at 292) (Influenza A virus (H3N2), UniProt F1KL32, R292K)
Assay type: biochemical
Condition Label: pH 6.5
Reported Metric: IC50 (nM)
Enter your answer as a number in nM; do not include the unit.

Consider CCC(CC)[C@H](NC(C)=O)[C@@H]1[C@H](O)[C@@H](C(=O)O)C[C@H]1N=C(N)N [Peramivir, peramivir] . Its measured IC50 is 16.3
